- procedure details: Measurement of log P values by HPLC on reversed phase columns (methods [a] pH 2.3, [b] pH 2.7, [c] pH 7.8)
- Type: physicochemical
- run parameters: HPLC reversed phase, method [b] (pH 2.7)
endpoint: logP

Request: Which measured logP value corresponds to O=C(NC1CCCC1c1ccc(Cl)cc1Cl)c1c(F)cccc1F (centres unmarked) ?
Response: 3.73^[b]

Request: Which measured logP value corresponds to O=C(NC1CCCCC1c1ccccc1C(F)(F)F)c1ccccc1C(F)(F)F (centres unmarked) [Example 374] ?
Response: 4.21^[b]

Request: Which measured logP value corresponds to O=C(N[C@@H]1CCC[C@@H]1c1ccccc1F)c1nccnc1C(F)(F)F (relative stereo) ?
Response: 3.00^[b]

Request: Which measured logP value corresponds to O=C(NC1CCC1c1ccc(Cl)cc1Cl)c1ccc(Cl)cc1 (centres unmarked) [Example 453] ?
Response: 3.85^[b]

Request: Which measured logP value corresponds to O=C(N[C@@H]1CC[C@H]1c1ccc(Cl)cc1Cl)c1ccccc1Cl (relative stereo) ?
Response: 3.90^[b]

Request: Which measured logP value corresponds to O=C(N[C@@H]1CC[C@@H]1c1ccc(Cl)cc1Cl)c1ccccc1Cl (relative stereo) ?
Response: 3.45^[b]

Request: Which measured logP value corresponds to O=C(NC1CCC1c1ccc(F)cc1C(F)(F)F)c1sccc1I (centres unmarked) [Compound 520] ?
Response: 3.82^[b]

Request: Which measured logP value corresponds to O=C(N[C@@H]1CC[C@H]1c1ccc(F)cc1C(F)(F)F)c1cccnc1Cl (relative stereo) ?
Response: 2.93^[b]

====

Consider the following compounds; for each one, report its logP.
- procedure details: Measurement of log P values by HPLC on reversed phase columns (methods [a] pH 2.3, [b] pH 2.7, [c] pH 7.8)
- Type: physicochemical
- run parameters: HPLC reversed phase, method [b] (pH 2.7)

Request: Which measured logP value corresponds to O=C(NC1CCC1c1ccccc1C(F)(F)F)c1c(F)cccc1F (stereo not drawn) ?
Response: 3.09^[b]

Request: Which measured logP value corresponds to Cc1nc(C)c(C(=O)NC2CCCC2c2ccc(Cl)cc2Cl)s1 (stereo not drawn) ?
Response: 3.24^[b]

Request: Which measured logP value corresponds to O=C(NC1CCC1c1ccccc1C(F)(F)F)c1ccccc1Cl (stereo not drawn) [Compound 432] ?
Response: 3.30^[b]

Request: Which measured logP value corresponds to O=C(NC1CCC1c1ccc(F)cc1C(F)(F)F)c1cccc(Cl)c1 (stereo not drawn) ?
Response: 4.02^[b]

Request: Which measured logP value corresponds to O=C(NC1CCCC1c1ccccc1Br)c1ccccc1C(F)(F)F (stereo not drawn) ?
Response: 3.71^[b]

Request: Which measured logP value corresponds to CC(C)Oc1ccc([C@H]2CCC[C@H]2NC(=O)c2ccccc2Cl)cc1 (relative stereo) ?
Response: 3.74^[b]

Request: Which measured logP value corresponds to O=C(N[C@@H]1CC[C@@H]1c1c(F)cccc1C(F)(F)F)c1ccccc1Br (relative stereo) ?
Response: 3.46^[b]

Request: Which measured logP value corresponds to O=C(NC1CCCCC1c1c(F)cccc1F)c1c(F)cccc1F (stereo not drawn) ?
Response: 3.44^[b]

Request: Which measured logP value corresponds to O=C(NC1CCCCC1c1ccccc1C(F)(F)F)c1ccccc1I (stereo not drawn) [Example 373] ?
Response: 4.22^[b]

Request: Which measured logP value corresponds to O=C(NC1CC1c1ccc(Cl)cc1)c1ccccc1[N+](=O)[O-] (stereo not drawn) ?
Response: 2.59^[b]

Request: Which measured logP value corresponds to O=C(N[C@@H]1CC[C@@H]1c1ccc(F)cc1C(F)(F)F)c1ccccc1[N+](=O)[O-] (relative stereo) ?
Response: 3.04^[b]

Request: Which measured logP value corresponds to O=C(NC1CCC1c1ccccc1C(F)(F)F)c1cccc(Cl)c1 (stereo not drawn) ?
Response: 3.59^[b]
